Experiment: Solubility of paclitaxel/lipid complex in oil (soybean oil, MCO, mixed oil)
Assay type: physicochemical
Conditions: oil or lipid, thermodynamic from solid; Table 4; soybean oil for injection, 60° C., saturated solution; read-out: drug solubility in vegetable oil: Soybean oil
property: solubility at 1 h (µg/mL)
Write the value in µg/mL as a bare number.

Briefly, solubility at 1 h measured for CC(=O)O[C@H]1C(=O)[C@@]2(C)[C@H]([C@H](OC(=O)c3ccccc3)[C@]3(O)C[C@H](OC(=O)[C@H](O)[C@@H](NC(=O)c4ccccc4)c4ccccc4)C(C)=C1C3(C)C)[C@]1(OC(C)=O)CO[C@@H]1C[C@@H]2O [Paclitaxel] : 270

* * *

Assay: Solubility of paclitaxel/lipid complex in oil (soybean oil, MCO, mixed oil)
Assay type: physicochemical
Details: soybean oil for injection, oil or lipid, thermodynamic from solid; Table 2; effect of paclitaxel/steroid amount ratio; saturated solution, HPLC; read-out: Solubility in soybean oil
Method: Take 4 g of paclitaxel, add cholesterol, 7-dehydrocholesterol and ergosterol respectively in accordance with the amount ratio as stated in Table 2 below, move to a rotary evaporator together, dissolve with 500 ml of acetone each, mix at 45° C. for 1 hour then remove the solvent by the rotary evaporation method, vacuum dry at 65° C. for 15 hours. Take a quantity of each complex formed, add 20 g of soybean oil for injection used, heat in water bath for 1 hour and shake, obtain saturated solutions. […]
property: solubility at 1 h (µg/mL)
Write the value in µg/mL as a bare number.

Briefly, solubility at 1 h measured for `CC(=O)O[C@H]1C(=O)[C@@]2(C)[C@H]([C@H](OC(=O)c3ccccc3)[C@]3(O)C[C@H](OC(=O)[C@H](O)[C@@H](NC(=O)c4ccccc4)c4ccccc4)C(C)=C1C3(C)C)[C@]1(OC(C)=O)CO[C@@H]1C[C@@H]2O` : 270

* * *

Assay: Solubility of paclitaxel/lipid complex in oil (soybean oil, MCO, mixed oil)
Format: physicochemical
Conditions: medium chain oil (MCO), oil or lipid, thermodynamic from solid; Table 4; MEDIUM CHAIN OIL, 60° C., saturated solution; read-out: drug solubility in vegetable oil: MCO
property: solubility at 1 h (µg/mL)
Write the value in µg/mL as a bare number.

Briefly, solubility at 1 h measured for `CC(=O)O[C@H]1C(=O)[C@@]2(C)[C@H]([C@H](OC(=O)c3ccccc3)[C@]3(O)C[C@H](OC(=O)[C@H](O)[C@@H](NC(=O)c4ccccc4)c4ccccc4)C(C)=C1C3(C)C)[C@]1(OC(C)=O)CO[C@@H]1C[C@@H]2O` : 2370

* * *

Test: Solubility of paclitaxel/lipid complex in oil (soybean oil, MCO, mixed oil)
Type: physicochemical
Details: soybean oil, oil or lipid, thermodynamic from solid; Table 1; complexes per CN200810168213.X; calculated as paclitaxel
property: solubility (µg/mL)
Write the value in µg/mL as a bare number.

Briefly, solubility measured for `CC(=O)O[C@H]1C(=O)[C@@]2(C)[C@H]([C@H](OC(=O)c3ccccc3)[C@]3(O)C[C@H](OC(=O)[C@H](O)[C@@H](NC(=O)c4ccccc4)c4ccccc4)C(C)=C1C3(C)C)[C@]1(OC(C)=O)CO[C@@H]1C[C@@H]2O` : 270
